test method notes: inhibitors of induced NF-kB luciferase reporter, primary screen, TCR NF-kB activation inhibitor project, cell-based, luminescence, uHTS (AID 435003)
condition info: Jurkat, PMA/ionomycin-induced NF-kB luciferase reporter, at 4 µM, stronger effect = higher value
The campaign covered roughly 330,000 compounds. About 1,700 (0.52%) were called active. Only a selection was taken, and actives are over-represented in it overall.
observation type: inhibition (%)
Dear colleague, please return just the value in %, with no unit written.

Observe how each entry below is paired with its result.
mol smiles	inhibition (%)
O=C(CCC1CCN(C(=O)c2cccc(Cl)c2F)CC1)Nc1ccccc1	2.28
CN=c1scc(-c2cc(OC)ccc2OC)n1/N=C/c1c(C)[nH]c2ccccc12	-10.3
COc1ccc2[nH]c(C(=O)N/N=C/c3cc(OC)c(OC)c(OC)c3)cc2c1	17.7
Cc1nc2ccccc2nc1N/N=C/c1ccc(O)cc1O	20.4
Cc1cc(/C=N/n2cnnc2)c(C)n1-c1ccc2ncccc2c1	9.47

Q. Bench note: what inhibition did `COc1ccc(Nc2ncnc3ccc(Br)cc23)c(OC)c1` show?
A. 59.8

Q. Bench note: what inhibition did `N=c1c2c(-c3ccccc3)c(-c3ccccc3)n(Cc3ccccc3)c2ncn1CCCO` show?
A. 58.6

Q. Bench note: what inhibition did `COc1cc(C(=S)NC2CCCCC2)ccc1O` show?
A. -4.8

Q. Bench note: what inhibition did `O=C1C=C(c2ccc(Cl)cc2)C(=O)N1Nc1ccccc1` show?
A. 13.6

Q. Bench note: what inhibition did `Brc1ccc2ncnc(NCc3cccnc3)c2c1` show?
A. 28.6

Q. Bench note: what inhibition did `COc1ccc(C(=O)/C=C/Nc2ccccn2)cc1` show?
A. 50.4

Q. Bench note: what inhibition did `Oc1c(Br)cccc1/C=N/Nc1c(F)c(F)c(F)c(F)c1F` show?
A. 2.14

Q. Bench note: what inhibition did `CCOc1ccc(N/C=C/C(=O)c2cc(OC)c(OC)c(OC)c2)cc1` show?
A. 44.3

Q. Bench note: what inhibition did `CCN(CC)CCn1cnc2c1c(=O)[nH]c(=O)n2Cc1ccccc1` show?
A. -2.97

Q. Bench note: what inhibition did `CCOc1ccc(N/C=C/C(=O)c2ccccc2)cc1` show?
A. -132

Q. Bench note: what inhibition did `CCOC(=O)[C@H]1[C@H]2COc3ccc(OC)cc3[C@@H]2N2C(=O)c3ccc(F)cc3NC(=O)[C@@]12C` show?
A. -10.9

Q. Bench note: what inhibition did `COc1ccccc1C1CCN(c2ccc([N+](=O)[O-])cn2)CC1` show?
A. 1.45

Q. Bench note: what inhibition did `Cc1cccc(NC(=O)c2cc(S(=O)(=O)N3CCC4(CC3)OCCO4)ccc2F)c1` show?
A. 4.99

Q. Bench note: what inhibition did `COc1ccc2cc1Oc1ccc(cc1)C[C@H]1c3cc(c(OC)cc3CCN1C)Oc1c(O)c(OC)cc3c1[C@H](C2)N(C)CC3` show?
A. 81.7

====

test method notes: inhibitors of induced NF-kB luciferase reporter, primary screen, TCR NF-kB activation inhibitor project, cell-based, luminescence, uHTS (AID 435003)
condition info: Jurkat, PMA/ionomycin-induced NF-kB luciferase reporter, at 4 µM, stronger effect = higher value
About 1,700 (0.52%) of roughly 330,000 compounds were called active. For the sample, actives were picked, then their nearest neighbours and some compounds at random.
The following molecules are shown together with reported inhibition values.
Dear colleague, please return just the value in %, with no unit written.

molecule	observation type	observed
COc1cc2c(cc1OC)CN(C(=O)c1ccc(S(=O)(=O)N3CCCCCC3)cc1)CC2	inhibition	12.2
O=C(c1ccc(OC2CCN(C(=O)c3cccnc3)CC2)cc1)N1CCCCCC1	inhibition	-2.83
CC1CCN(c2ccc(C(=O)NCc3ccc4c(c3)OCO4)cc2[N+](=O)[O-])CC1	inhibition	-1.58
CCNC(=O)c1cccc(NC(=O)C2CC(=O)N(CCc3ccccc3)C2)c1 (stereo not given)	inhibition	8.87
CC(C)CC[n+]1ccn(C2=C([O-])c3ccccc3C(=O)/C2=N\S(=O)(=O)c2ccccc2)c1	inhibition	6.27

Q. Bench note: what inhibition did `O=C(NCc1ccc2c(c1)OCO2)c1cc([N+](=O)[O-])ccc1N1CCOCC1` show?
A. 60.2

Q. Bench note: what inhibition did CCOc1ccc(C2C(C(=O)NC)=C(C)Nc3nc4ccccc4n32)cc1OC (stereo not given) show?
A. 6.25

Q. Bench note: what inhibition did `CCN1C(=O)/C(=C2\SC(N3CCCCC3)=NC2=O)c2ccccc21` show?
A. -33.7

Q. Bench note: what inhibition did `O=C(NCc1ccc2c(c1)OCO2)c1cc(F)c(F)cc1Cl` show?
A. -12

Q. Bench note: what inhibition did COc1ccccc1NC(=O)C1=C(C)Nc2nc3ccccc3n2C1c1cccs1 (stereo not given) show?
A. 58.1
